Study Target: Cannabinoid receptor 1 (Homo sapiens)
Sequence (P21554 whole entry): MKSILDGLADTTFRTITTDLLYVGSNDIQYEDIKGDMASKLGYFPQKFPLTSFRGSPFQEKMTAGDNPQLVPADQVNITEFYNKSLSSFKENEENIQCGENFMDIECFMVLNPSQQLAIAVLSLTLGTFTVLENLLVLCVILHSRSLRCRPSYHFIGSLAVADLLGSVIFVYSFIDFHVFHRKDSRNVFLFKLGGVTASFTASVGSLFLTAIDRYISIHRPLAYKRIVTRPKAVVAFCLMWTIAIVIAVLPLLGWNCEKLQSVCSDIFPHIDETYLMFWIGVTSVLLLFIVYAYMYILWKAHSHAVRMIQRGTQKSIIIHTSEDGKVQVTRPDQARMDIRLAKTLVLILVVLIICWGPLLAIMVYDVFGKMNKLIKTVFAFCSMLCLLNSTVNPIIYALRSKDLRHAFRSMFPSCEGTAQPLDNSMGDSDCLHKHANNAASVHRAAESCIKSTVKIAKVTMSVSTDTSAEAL
Assay Overview: Antagonist activity at human CB1 receptor expressed in HEK293 cells assessed as inhibition of Eu-GTP binding
Metric: EC50 (nM)
Numbers only, in nM.

Use the examples below as a reference point.
Structure Smiles String	Scale Unit	Test Result
O=C(Cn1nc(-c2ccc(Cl)cc2Cl)c(-c2ccc(Cl)cc2Cl)n1)Nc1ccccc1	nM	136
O=C(Cn1nc(-c2ccc(Cl)cc2)c(-c2ccc(Cl)cc2Cl)n1)NCc1ccccc1	nM	216
O=C(Cn1nc(-c2ccc(Cl)cc2Cl)c(-c2ccc(Cl)cc2Cl)n1)NCc1ccccc1	nM	87
O=C(Cn1nc(-c2ccc(Cl)cc2Cl)c(-c2ccc(Cl)cc2Cl)n1)NCc1ccccc1Cl	nM	12.2
O=C(Cn1nc(-c2ccc(Cl)cc2Cl)c(-c2ccc(Cl)cc2Cl)n1)NCc1ccccc1F	nM	23.5

Please state, for each entry, its recorded EC50.
1. O=C(Cn1nc(-c2ccc(Cl)cc2)c(-c2ccc(Cl)cc2Cl)n1)NCc1ccc(F)cc1
2. O=C(Cn1nc(-c2ccc(Cl)cc2Cl)c(-c2ccc(Cl)cc2Cl)n1)NCc1ccc(F)cc1

Output:
[235, 50.7]

Given item O=C(Cn1nc(-c2ccc(Cl)cc2Cl)c(-c2ccc(Cl)cc2Cl)n1)NCc1cc(F)ccc1F , the value recorded as its EC50 is 22
